Quick reference for Ki among some molecules
target: CA VII (Homo sapiens, UniProt P43166); construct: gene CA7; recombinant, obtained in-house; test: stopped-flow CO2 hydrase assay; assay type: biochemical
Sequence (P43166 whole entry): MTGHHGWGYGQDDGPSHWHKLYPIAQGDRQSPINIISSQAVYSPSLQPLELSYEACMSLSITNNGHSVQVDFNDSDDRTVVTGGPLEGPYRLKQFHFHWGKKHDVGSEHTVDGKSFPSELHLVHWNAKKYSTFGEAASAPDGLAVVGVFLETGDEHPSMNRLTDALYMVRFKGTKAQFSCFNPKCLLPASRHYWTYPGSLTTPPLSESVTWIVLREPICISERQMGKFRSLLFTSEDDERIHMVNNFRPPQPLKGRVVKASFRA

molecule	Ki / nM
NS(=O)(=O)c1ccc(NC(=O)N2N=C(c3ccccc3)CC2c2ccccc2)cc1 (centres unmarked)	33.2
NS(=O)(=O)c1ccc(NC(=O)N2N=C(c3ccc(Br)cc3)CC2c2ccc(Cl)cc2)cc1 (centres unmarked)	2.7
COc1ccc(C2CC(c3ccc(Cl)cc3)=NN2C(=O)Nc2ccc(S(N)(=O)=O)cc2)cc1OC (centres unmarked)	2.3
NS(=O)(=O)c1ccc(NC(=O)N2N=C(c3ccc(Cl)cc3)CC2c2cccs2)cc1 (centres unmarked)	2.9
NS(=O)(=O)c1ccc(NC(=O)N2N=C(c3ccc(Br)cc3)CC2c2ccccc2)cc1 (centres unmarked)	2.9

----------
target: CA VII (Homo sapiens); construct: gene CA7; recombinant, obtained in-house; assay: stopped-flow CO2 hydrase assay; assay type: biochemical

molecule	Ki
NS(=O)(=O)c1ccc(NC(=O)N2N=C(c3ccccc3)CC2c2cccs2)cc1 (stereo not shown) [compound 9]	1.9 nM
NS(=O)(=O)c1ccc(NC(=O)N2N=C(c3ccccc3)CC2c2c(F)cccc2Cl)cc1 (stereo not shown) [compound 8]	2.4 nM
NS(=O)(=O)c1ccc(NC(=O)N2N=C(c3ccc(Cl)cc3)CC2c2ccc(Cl)cc2Cl)cc1 (stereo not shown) [compound 17]	27.6 nM
NS(=O)(=O)c1ccc(NC(=O)N2N=C(c3ccc(Cl)cc3)CC2c2ccc(F)cc2)cc1 (stereo not shown) [compound 15]	3.2 nM

----------
target: CA IX (Homo sapiens, UniProt Q16790); construct: gene CA9; recombinant, obtained in-house; assay: stopped-flow CO2 hydrase assay; assay type: biochemical; conditions: read-out: KI (nM) / CA IX

compound	Ki
NS(=O)(=O)c1ccc(NC(=O)N2N=C(c3ccc(Cl)cc3)CC2c2c(F)cccc2Cl)cc1 (stereo not shown)	2.7 nM
COc1ccc(C2CC(c3ccc(Cl)cc3)=NN2C(=O)Nc2ccc(S(N)(=O)=O)cc2)cc1OC (stereo not shown)	2.2 nM
COc1ccc(C2CC(c3ccc(Cl)cc3)=NN2C(=O)Nc2ccc(S(N)(=O)=O)cc2)cc1 (stereo not shown)	2.8 nM
NS(=O)(=O)c1ccc(NC(=O)N2N=C(c3ccc(Cl)cc3)CC2c2cccs2)cc1 (stereo not shown)	2.5 nM

----------
target: CA XII (Homo sapiens, UniProt O43570); construct: gene CA12; recombinant, obtained in-house; assay: stopped-flow CO2 hydrase assay; format: biochemical
Sequence (O43570 25-354): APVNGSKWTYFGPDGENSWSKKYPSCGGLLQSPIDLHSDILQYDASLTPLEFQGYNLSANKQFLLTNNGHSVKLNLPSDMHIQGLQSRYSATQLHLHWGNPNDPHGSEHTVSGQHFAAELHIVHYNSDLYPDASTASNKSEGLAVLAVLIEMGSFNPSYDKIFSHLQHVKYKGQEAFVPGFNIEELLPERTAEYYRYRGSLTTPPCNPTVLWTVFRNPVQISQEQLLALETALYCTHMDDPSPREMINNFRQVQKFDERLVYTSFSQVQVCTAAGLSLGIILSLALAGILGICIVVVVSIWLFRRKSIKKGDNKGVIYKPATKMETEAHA
Range-based classes on measured Ki: low-valued = under 1 nM, mid-valued = from 1 nM up to 2 nM, high-valued = 2 nM and over

compound	label
NS(=O)(=O)c1ccc(NC(=O)N2N=C(c3ccc(Cl)cc3)CC2c2c(F)cccc2Cl)cc1 (centres unmarked)	high-valued
NS(=O)(=O)c1ccc(NC(=O)N2N=C(c3ccc(Br)cc3)CC2c2ccccc2)cc1 (centres unmarked)	high-valued
NS(=O)(=O)c1ccc(NC(=O)N2N=C(c3ccc(Cl)cc3)CC2c2ccccc2)cc1 (centres unmarked)	high-valued
NS(=O)(=O)c1ccc(NC(=O)N2N=C(c3ccccc3)CC2c2ccc(Cl)cc2Cl)cc1 (centres unmarked)	low-valued
NS(=O)(=O)c1ccc(NC(=O)N2N=C(c3ccc(Br)cc3)CC2c2ccc(F)cc2)cc1 (centres unmarked)	high-valued
NS(=O)(=O)c1ccc(NC(=O)N2N=C(c3ccc(Cl)cc3)CC2c2ccc(Cl)cc2)cc1 (centres unmarked)	mid-valued
COc1ccc(C2CC(c3ccc(Cl)cc3)=NN2C(=O)Nc2ccc(S(N)(=O)=O)cc2)cc1OC (centres unmarked)	mid-valued
NS(=O)(=O)c1ccc(NC(=O)N2N=C(c3ccccc3)CC2c2ccc(Cl)cc2)cc1 (centres unmarked)	mid-valued
COc1ccc(C2CC(c3ccc(Cl)cc3)=NN2C(=O)Nc2ccc(S(N)(=O)=O)cc2)cc1 (centres unmarked)	low-valued
NS(=O)(=O)c1ccc(NC(=O)N2N=C(c3ccccc3)CC2c2ccc(F)cc2)cc1 (centres unmarked)	high-valued
NS(=O)(=O)c1ccc(NC(=O)N2N=C(c3ccc(Br)cc3)CC2c2ccc(Cl)cc2)cc1 (centres unmarked)	low-valued
NS(=O)(=O)c1ccc(NC(=O)N2N=C(c3ccc(Cl)cc3)CC2c2cccs2)cc1 (centres unmarked)	low-valued
NS(=O)(=O)c1ccc(NC(=O)N2N=C(c3ccc(Cl)cc3)CC2c2ccccc2Cl)cc1 (centres unmarked)	mid-valued
NS(=O)(=O)c1ccc(NC(=O)N2N=C(c3ccccc3)CC2c2cccs2)cc1 (centres unmarked)	high-valued
NS(=O)(=O)c1ccc(NC(=O)N2N=C(c3ccccc3)CC2c2c(F)cccc2Cl)cc1 (centres unmarked)	mid-valued
NS(=O)(=O)c1ccc(NC(=O)N2N=C(c3ccccc3)CC2c2c3ccccc3cc3ccccc23)cc1 (centres unmarked)	high-valued

----------
Quick list: Ki per entry.
target: CA II (Homo sapiens); construct: gene CA2; recombinant, obtained in-house; assay: stopped-flow CO2 hydrase assay; format: biochemical
property: Ki (nM)

compound	property	numeric readout
NS(=O)(=O)c1ccc(NC(=O)N2N=C(c3ccc(Cl)cc3)CC2c2ccc(Cl)cc2)cc1 (stereo not drawn)	Ki	12.7
NS(=O)(=O)c1ccc(NC(=O)N2N=C(c3ccccc3)CC2c2ccc(Cl)cc2)cc1 (stereo not drawn)	Ki	8.2
NS(=O)(=O)c1ccc(NC(=O)N2N=C(c3ccc(Br)cc3)CC2c2ccc(F)cc2)cc1 (stereo not drawn)	Ki	5.5
NS(=O)(=O)c1ccc(NC(=O)N2N=C(c3ccc(Cl)cc3)CC2c2c(F)cccc2Cl)cc1 (stereo not drawn)	Ki	10.8
COc1ccc(C2CC(c3ccc(Cl)cc3)=NN2C(=O)Nc2ccc(S(N)(=O)=O)cc2)cc1 (stereo not drawn)	Ki	9.4
NS(=O)(=O)c1ccc(NC(=O)N2N=C(c3ccc(Cl)cc3)CC2c2ccc(F)cc2)cc1 (stereo not drawn)	Ki	71.3
NS(=O)(=O)c1ccc(NC(=O)N2N=C(c3ccccc3)CC2c2ccccc2)cc1 (stereo not drawn)	Ki	67.3
NS(=O)(=O)c1ccc(NC(=O)N2N=C(c3ccc(Br)cc3)CC2c2ccccc2)cc1 (stereo not drawn)	Ki	6.3
COc1ccc(C2CC(c3ccc(Cl)cc3)=NN2C(=O)Nc2ccc(S(N)(=O)=O)cc2)cc1OC (stereo not drawn)	Ki	9.3
NS(=O)(=O)c1ccc(NC(=O)N2N=C(c3ccc(Cl)cc3)CC2c2ccccc2O)cc1 (stereo not drawn)	Ki	7.6
NS(=O)(=O)c1ccc(NC(=O)N2N=C(c3ccccc3)CC2c2ccc(Cl)cc2Cl)cc1 (stereo not drawn)	Ki	5.4
NS(=O)(=O)c1ccc(NC(=O)N2N=C(c3ccc(Cl)cc3)CC2c2ccccc2)cc1 (stereo not drawn)	Ki	233
NS(=O)(=O)c1ccc(NC(=O)N2N=C(c3ccc(Br)cc3)CC2c2ccc(Cl)cc2)cc1 (stereo not drawn)	Ki	10.7
NS(=O)(=O)c1ccc(NC(=O)N2N=C(c3ccccc3)CC2c2c3ccccc3cc3ccccc23)cc1 (stereo not drawn)	Ki	7.1
NS(=O)(=O)c1ccc(NC(=O)N2N=C(c3ccccc3)CC2c2cccs2)cc1 (stereo not drawn)	Ki	5.2
NS(=O)(=O)c1ccc(NC(=O)N2N=C(c3ccc(Cl)cc3)CC2c2ccc(Cl)cc2Cl)cc1 (stereo not drawn)	Ki	13.5
NS(=O)(=O)c1ccc(NC(=O)N2N=C(c3ccccc3)CC2c2ccc(F)cc2)cc1 (stereo not drawn)	Ki	58.2
NS(=O)(=O)c1ccc(NC(=O)N2N=C(c3ccc(Cl)cc3)CC2c2ccccc2Cl)cc1 (stereo not drawn)	Ki	8.8
NS(=O)(=O)c1ccc(NC(=O)N2N=C(c3ccc(Cl)cc3)CC2c2cccs2)cc1 (stereo not drawn)	Ki	9.2
NS(=O)(=O)c1ccc(NC(=O)N2N=C(c3ccccc3)CC2c2c(F)cccc2Cl)cc1 (stereo not drawn)	Ki	5.2
Cc1ccc(C2CC(c3ccc(Cl)cc3)=NN2C(=O)Nc2ccc(S(N)(=O)=O)cc2)cc1 (stereo not drawn)	Ki	12.3

----------
Below is a list of entries, each paired with its recorded Ki value.
target: CA IX (Homo sapiens, UniProt Q16790); construct: gene CA9; recombinant, obtained in-house; assay: stopped-flow CO2 hydrase assay; type: biochemical; settings: read-out: KI (nM) / CA IX

compound	measure unit	Ki
Cc1ccc(C2CC(c3ccc(Cl)cc3)=NN2C(=O)Nc2ccc(S(N)(=O)=O)cc2)cc1 (stereo not shown)	nM	2.9
NS(=O)(=O)c1ccc(NC(=O)N2N=C(c3ccc(Cl)cc3)CC2c2ccccc2O)cc1 (stereo not shown)	nM	76.6
NS(=O)(=O)c1ccc(NC(=O)N2N=C(c3ccccc3)CC2c2ccc(Cl)cc2Cl)cc1 (stereo not shown)	nM	1.4
NS(=O)(=O)c1ccc(NC(=O)N2N=C(c3ccc(Br)cc3)CC2c2ccc(Cl)cc2)cc1 (stereo not shown)	nM	14.3

----------
target: CA IX (Homo sapiens); construct: gene CA9; recombinant, obtained in-house; test: stopped-flow CO2 hydrase assay; type: biochemical; details: read-out: KI (nM) / CA IX

compound	measure unit	Ki
NS(=O)(=O)c1ccc(NC(=O)N2N=C(c3ccccc3)CC2c2ccc(F)cc2)cc1 (stereo not shown)	nM	1.5
NS(=O)(=O)c1ccc(NC(=O)N2N=C(c3ccccc3)CC2c2c(F)cccc2Cl)cc1 (stereo not shown)	nM	1.5
NS(=O)(=O)c1ccc(NC(=O)N2N=C(c3ccccc3)CC2c2ccc(Cl)cc2)cc1 (stereo not shown)	nM	1.4
NS(=O)(=O)c1ccc(NC(=O)N2N=C(c3ccc(Cl)cc3)CC2c2ccccc2)cc1 (stereo not shown)	nM	16.5
